System: human red blood cells
Experiment: Hemolytic activity
Assay type: cell-based
Details: red cells of human, 18 h, 100
Square brackets hold non-standard residues; d marks the D form. Peptide text beside a SMILES is read from it. dBta = N[C@H](Cc1csc2ccccc12)C(=O)O
Measured Hemolysis percent, 100 μM of individual entries

COMPOUND	UNIT OF MEASUREMENT	Hemolysis percent, 100 μM
CC[C@@H](C)[C@@H](NC(=O)[C@@H](Cc1c[nH]c2ccccc12)NC(=O)[C@H](NC(=O)[C@@H](CC(C)C)NC(=O)[C@@H](Cc1c[nH]c2ccccc12)NC(=O)[C@H](N)CCCCN)C(C)C)C(=O)N[C@H](Cc1c[nH]c2ccccc12)C(=O)N[C@H](CCCNC(=N)N)C(=O)N[C@H](CCCNC(=N)N)C(=O)N[C@H](CCCNC(=N)N)C(N)=O [WCopW35] (H-[dK][dW][dL][dV][dW][dI][dW][dR][dR][dR]-NH2)	%	6.07
CC[C@@H](C)[C@@H](NC(=O)[C@@H](Cc1c[nH]c2ccccc12)NC(=O)[C@H](NC(=O)[C@@H](CC(C)C)NC(=O)[C@H](N)Cc1c[nH]c2ccccc12)C(C)C)C(=O)N[C@H](Cc1ccc(O)cc1)C(=O)N[C@H](CCCNC(=N)N)C(=O)N[C@H](CCCNC(=N)N)C(=O)N[C@H](CCCNC(=N)N)C(N)=O [WCopW33] (H-[dW][dL][dV][dW][dI][dY][dR][dR][dR]-NH2)	%	9.93
CC(C)[C@@H](NC(=O)[C@H](N)Cc1c[nH]c2ccccc12)C(=O)N[C@@H](C(=O)N[C@H](Cc1c[nH]c2ccccc12)C(=O)N[C@@H](C(=O)N[C@@H](C(=O)N[C@H](Cc1c[nH]c2ccccc12)C(=O)N[C@H](CCCNC(=N)N)C(=O)N[C@H](CCCNC(=N)N)C(=O)N[C@H](CCCNC(=N)N)C(N)=O)C(C)C)C(C)C)C(C)C [WCopW42] (H-[dW][dV][dV][dW][dV][dV][dW][dR][dR][dR]-NH2)	%	26.66
CC[C@@H](C)[C@@H](NC(=O)[C@@H](Cc1c[nH]c2ccccc12)NC(=O)[C@@H](CC(C)C)NC(=O)[C@@H](CC(C)C)NC(=O)[C@H](N)Cc1c[nH]c2ccccc12)C(=O)N[C@H](C)C(=O)N[C@H](CC(C)C)C(=O)N[C@H](CCCNC(=N)N)C(=O)N[C@H](CCCCN)C(=O)N[C@H](CCCCN)C(N)=O [WCopW6] (H-[dW][dL][dL][dW][dI][dA][dL][dR][dK][dK]-NH2)	%	18.06
CC[C@@H](C)[C@@H](NC(=O)[C@@H](Cc1c[nH]c2ccccc12)NC(=O)[C@H](NC(=O)[C@@H](CC(C)C)NC(=O)[C@H](N)Cc1c[nH]c2ccccc12)C(C)C)C(=O)N[C@H](Cc1c[nH]c2ccccc12)C(=O)N[C@H](CCCNC(=N)N)C(=O)N[C@H](CCCNC(=N)N)C(=O)N[C@H](CCC(N)=O)C(=O)N[C@H](CCCNC(=N)N)C(N)=O [WCopW31] (H-[dW][dL][dV][dW][dI][dW][dR][dR][dQ][dR]-NH2)	%	6.88
CC[C@@H](C)[C@@H](NC(=O)[C@@H](Cc1c[nH]c2ccccc12)NC(=O)[C@@H](CC(C)C)NC(=O)[C@@H](CC(C)C)NC(=O)[C@@H](Cc1c[nH]c2ccccc12)NC(=O)[C@@H](N)CO)C(=O)NCC(=O)N[C@H](CC(C)C)C(=O)N[C@H](CCCNC(=N)N)C(=O)N[C@H](CCCCN)C(=O)N[C@H](CCCCN)C(=O)N[C@H](CCCNC(=N)N)C(N)=O [WCopW19] (H-S[dW][dL][dL][dW][dI]G[dL][dR][dK][dK][dR]-NH2)	%	10.57
CC[C@@H](C)[C@@H](NC(=O)[C@@H](Cc1c[nH]c2ccccc12)NC(=O)[C@@H](CC(C)C)NC(=O)[C@@H](CC(C)C)NC(=O)[C@H](N)Cc1csc2ccccc12)C(=O)NCC(=O)N[C@H](CC(C)C)C(=O)N[C@H](CCCNC(=N)N)C(=O)N[C@H](CCCCN)C(=O)N[C@H](CCCCN)C(=O)N[C@H](CCCNC(=N)N)C(N)=O [WCopW16] (H-[dBta][dL][dL][dW][dI]G[dL][dR][dK][dK][dR]-NH2)	%	10.59
CC(C)[C@@H](NC(=O)[C@H](N)Cc1c[nH]c2ccccc12)C(=O)N[C@@H](C(=O)N[C@H](Cc1c[nH]c2ccccc12)C(=O)N[C@@H](C(=O)N[C@H](Cc1c[nH]c2ccccc12)C(=O)N[C@H](CCCNC(=N)N)C(=O)N[C@H](CCCNC(=N)N)C(=O)N[C@H](CCCNC(=N)N)C(N)=O)C(C)C)C(C)C [WCopW40] (H-[dW][dV][dV][dW][dV][dW][dR][dR][dR]-NH2)	%	2.14
CC[C@@H](C)[C@@H](NC(=O)[C@@H](Cc1c[nH]c2ccccc12)NC(=O)[C@@H](CCCNC(=N)N)NC(=O)[C@@H](CCCNC(=N)N)NC(=O)[C@H](N)CCCNC(=N)N)C(=O)N[C@H](Cc1c[nH]c2ccccc12)C(=O)N[C@@H](C(=O)N[C@@H](C(=O)N[C@H](Cc1c[nH]c2ccccc12)C(=O)N[C@H](CCCCN)C(N)=O)[C@H](C)CC)C(C)C [WCopW43] (H-[dR][dR][dR][dW][dI][dW][dV][dI][dW][dK]-NH2)	%	5.02
CC[C@@H](C)[C@@H](NC(=O)[C@@H](Cc1c[nH]c2ccccc12)NC(=O)[C@@H](CC(C)C)NC(=O)[C@H](N)CC(C)C)C(=O)N[C@H](C)C(=O)N[C@H](CC(C)C)C(=O)N[C@H](CCCNC(=N)N)C(=O)N[C@H](CCCCN)C(=O)N[C@H](CCCCN)C(=O)N[C@H](CCCNC(=N)N)C(N)=O [WCopW11] (H-[dL][dL][dW][dI][dA][dL][dR][dK][dK][dR]-NH2)	%	1.08
